# RUN_DESCRIPTION: Plasma protein binding, mouse plasma
# Assay type: in vitro ADME
# CONDITION_SET: mouse, plasma, mouse plasma protein binding; read-out: PPB (m) (converted)
METRIC: fraction unbound at 4 h, 100 µM
Kindly provide the number alone.

Reported fraction unbound at 4 h, 100 µM for "O=P(O)(O)CP(=O)(O)OC[C@H]1O[C@@H](n2ccc3c(-c4ccsc4)ncnc32)[C@H](O)[C@@H]1O" : what is it? 0.726

Reported fraction unbound at 4 h, 100 µM for O=P(O)(O)CP(=O)(O)OC[C@H]1O[C@@H](n2ccc3c(-c4ccc5ccccc5c4)nc(F)nc32)[C@H](O)[C@@H]1O [14D.7] : what is it? 0.183

Reported fraction unbound at 4 h, 100 µM for "Nc1ccc(-c2nc(Cl)nc3c2ccn3[C@@H]2O[C@H](COP(=O)(O)CP(=O)(O)O)[C@@H](O)[C@H]2O)c2ccccc12" : what is it? 0.374

Reported fraction unbound at 4 h, 100 µM for O=P(O)(O)CP(=O)(O)OC[C@H]1O[C@@H](n2ccc3c(-c4ccc5c(c4)CCCC5)nc(I)nc32)[C@H](O)[C@@H]1O [27H.23] : what is it? 0.036
